- METHOD: RP, Agilent ZORBAX Eclipse XDB-C18, 100 × 2.1 mm, 1.8 µm, 50 °C, 0.4 mL/min, estimated dead time 0.55 min; A: water + 0.1% formic acid; B: methanol; gradient (min/%B) 0/30 2/30 5/52 15/65 20/78 22.5/78 29/90 38/100
- CONDITION NOTES: stereoisomer not certain
MEASURED PROPERTY: LC retention time

>  <COMPOUND>
CC(C)CC(=O)O

>  <MEASURED PROPERTY>
LC retention time

>  <RESULT>
14 min

$$$$
>  <COMPOUND>
O=C(O)CCCC(=O)C(=O)O

>  <MEASURED PROPERTY>
LC retention time

>  <RESULT>
7.25 min

$$$$
>  <COMPOUND>
CCCCCCCCCCCCCCCCCC(=O)O

>  <MEASURED PROPERTY>
LC retention time

>  <RESULT>
31.5 min

$$$$
>  <COMPOUND>
O=C(O)c1cc(=O)c2cccc(O)c2[nH]1

>  <MEASURED PROPERTY>
LC retention time

>  <RESULT>
9.89 min

$$$$
>  <COMPOUND>
O=C(O)C(=O)Cc1c[nH]c2ccccc12

>  <MEASURED PROPERTY>
LC retention time

>  <RESULT>
15.5 min

$$$$
>  <COMPOUND>
CCCCCCCCCCCCCCCC(=O)O

>  <MEASURED PROPERTY>
LC retention time

>  <RESULT>
29.8 min

$$$$
>  <COMPOUND>
CCCCC(C)CCC(=O)O (stereo not drawn)

>  <MEASURED PROPERTY>
LC retention time

>  <RESULT>
22.5 min

$$$$
>  <COMPOUND>
Nc1c(O)cccc1C(=O)CC(N)C(=O)O (stereo not drawn)

>  <MEASURED PROPERTY>
LC retention time

>  <RESULT>
21 min

$$$$
>  <COMPOUND>
CC(C)CC(N)C(=O)O (stereo not drawn)

>  <MEASURED PROPERTY>
LC retention time

>  <RESULT>
11.7 min

$$$$
>  <COMPOUND>
NC(Cc1ccccc1)C(=O)O (stereo not drawn)

>  <MEASURED PROPERTY>
LC retention time

>  <RESULT>
11.8 min

$$$$
>  <COMPOUND>
COc1ccc2[nH]cc(CC(=O)O)c2c1

>  <MEASURED PROPERTY>
LC retention time

>  <RESULT>
12.1 min

$$$$
>  <COMPOUND>
O=C(O)Cc1c[nH]c2ccc(O)cc12

>  <MEASURED PROPERTY>
LC retention time

>  <RESULT>
12.1 min

$$$$
>  <COMPOUND>
CC(C)C(=O)O

>  <MEASURED PROPERTY>
LC retention time

>  <RESULT>
11.4 min

$$$$
